target: cynomolgus Siglec-2/CD22 (Macaca fascicularis, UniProt A0A2K5WCZ6); assay: biochemical; conditions: SPR, steady-state analysis; read-out: Affinity cyno CD22
Sequence (A0A2K5WCZ6 entry or part of it): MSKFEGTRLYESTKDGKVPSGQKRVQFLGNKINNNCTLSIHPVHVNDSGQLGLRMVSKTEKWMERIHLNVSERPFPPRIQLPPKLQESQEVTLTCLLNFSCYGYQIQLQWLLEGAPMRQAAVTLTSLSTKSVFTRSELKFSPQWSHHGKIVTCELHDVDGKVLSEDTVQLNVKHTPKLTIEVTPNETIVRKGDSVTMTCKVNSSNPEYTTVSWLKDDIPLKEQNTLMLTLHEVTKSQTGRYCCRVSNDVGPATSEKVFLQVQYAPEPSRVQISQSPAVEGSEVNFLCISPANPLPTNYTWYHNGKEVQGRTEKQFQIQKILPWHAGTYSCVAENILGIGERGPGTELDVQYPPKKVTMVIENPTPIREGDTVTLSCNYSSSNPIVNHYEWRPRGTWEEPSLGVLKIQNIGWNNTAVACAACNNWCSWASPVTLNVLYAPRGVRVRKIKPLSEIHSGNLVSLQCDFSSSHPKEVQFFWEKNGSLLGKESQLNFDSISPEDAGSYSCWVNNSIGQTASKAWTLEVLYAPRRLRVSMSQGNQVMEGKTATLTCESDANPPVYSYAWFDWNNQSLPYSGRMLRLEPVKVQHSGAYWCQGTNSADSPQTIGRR
value.kind: Kd

As a guide, the following entries are already answered.
C#CCOCCCCCCO[C@]1(C(=O)O)C[C@H](O)[C@@H](NC(=O)CO)[C@H]([C@H](O)[C@H](O)CNC(=O)Cc2ccc(-c3ccc4[nH]cc(C)c4c3)cc2)O1 | < 1 µM
C#CCOCCOCCO[C@]1(C(=O)O)C[C@H](O)[C@@H](NC(=O)CO)[C@H]([C@H](O)[C@H](O)CNC(=O)Cc2ccc(-c3cccc(O)c3)cc2)O1 | 1 to 10 µM
C#CCOCCCCCCO[C@]1(C(=O)O)C[C@H](O)[C@@H](NC(=O)CO)[C@H]([C@H](O)[C@H](O)CNC(=O)Cc2ccc3cc[nH]c3c2)O1 | < 1 µM

Task item: Give the measured Kd for "C#CCOCCOCCO[C@]1(C(=O)NS(C)(=O)=O)C[C@H](O)[C@@H](NC(=O)CO)[C@H]([C@H](O)[C@H](O)CNC(=O)Cc2ccc(-c3ccc(O)cc3)cc2)O1"
Reply: > 10 µM

Task item: Give the measured Kd for C#CCOCCCCCCO[C@]1(C(=O)O)C[C@H](O)[C@@H](NC(=O)C(O)CO)[C@H]([C@H](O)[C@H](O)CNC(=O)Cc2ccc(Cl)cc2)O1 (some centres unmarked)
Reply: < 1 µM

----------
target: cynomolgus Siglec-2/CD22 (Macaca fascicularis); assay: biochemical; conditions: SPR, steady-state analysis; read-out: Affinity cyno CD22
pKd: −log10 of the molar value.
value.kind: pKd

As a guide, the following entries are already answered.
C#CCCCCNC(=O)CCCCCCO[C@]1(C(=O)O)C[C@H](O)[C@@H](NC(=O)CO)[C@H]([C@H](O)[C@H](O)CNC(=O)Cc2ccc(Cl)cc2)O1 | > 6.00
C#CCCCCCCc1cn([C@]2(C(=O)O)C[C@H](O)[C@@H](NC(=O)CO)[C@H]([C@H](O)[C@H](O)CNC(=O)Cc3cccc(O)c3)O2)nn1 | 5.00 to 6.00
C#CCOCCCCCCO[C@]1(C(=O)O)C[C@H](O)[C@@H](NC(=O)Cc2ccccc2)[C@H]([C@H](O)[C@H](O)CNC(=O)Cc2ccc(Cl)cc2)O1 | < 5.00
C#CCCOc1cccc(CO[C@]2(C(=O)O)C[C@H](O)[C@@H](NC(C)=O)[C@H]([C@H](O)[C@H](O)CNC(=O)c3cccc(Oc4ccccc4)c3)O2)c1 | 5.00 to 6.00

Task item: Give the measured pKd for C#CCOCCOCCNc1c(NCCCCCCO[C@]2(C(=O)O)C[C@H](O)[C@@H](NC(=O)CO)[C@H]([C@H](O)[C@H](O)CNC(=O)C(F)(F)c3ccccc3)O2)c(=O)c1=O [Compound 41]
Reply: 5.00 to 6.00

Task item: Give the measured pKd for "C#CCOCCOCCO[C@]1(C(=O)O)C[C@H](O)[C@@H](NC(=O)CO)[C@H]([C@H](O)[C@H](O)CNC(=O)Cn2cc(-c3ccccc3)nn2)O1"
Reply: 5.00 to 6.00

----------
pKd: −log10 of the molar value.
// mouse Siglec-2-Fc-Avi (CD22) (Mus musculus, UniProt P35329) pKd records

As a guide, the following entries are already answered.
C#CCCOc1ccc(CS[C@]2(C(=O)O)C[C@H](O)[C@@H](NC(=O)CO)[C@H]([C@H](O)[C@H](O)CNC(=O)Cc3ccc(Cl)c(O)c3)O2)cc1 | > 6.00
C#CCCOc1ccc(CO[C@]2(C(=O)O)C[C@H](O)[C@@H](NC(=O)CO)[C@H]([C@H](O)[C@H](O)CNC(=O)Cc3ccc(-c4ccc(NC(C)=O)cc4)cc3)O2)cc1 | > 6.00
C#CCOCCOCCO[C@]1(C(=O)O)C[C@H](O)[C@@H](NC(=O)C(C)(C)O)[C@H]([C@H](O)[C@H](O)CNC(=O)Cc2ccc(-c3ccc(O)cc3)cc2)O1 | < 5.00
C#CCCOc1ccc(CO[C@]2(C(=O)O)C[C@H](O)[C@@H](NC(=O)CO)[C@H]([C@H](O)[C@H](O)CNC(=O)C(C)(O)c3ccccc3)O2)cc1 (stereo partly shown) | < 5.00
C#CCOCCCCCCO[C@]1(C(=O)O)C[C@H](O)[C@@H](NC(=O)CO)[C@H]([C@H](O)[C@H](O)CNC(=O)Cc2ccc(C#N)cc2)O1 | 5.00 to 6.00
C#CCOCCOCCO[C@]1(C(=O)O)C[C@H](O)[C@@H](NC(=O)CO)[C@H]([C@H](O)[C@H](O)CNC(=O)Cc2ccc(-c3ccc(=O)[nH]c3)cc2)O1 | 5.00 to 6.00

Task item: State recorded pKd with mouse Siglec-2-Fc-Avi (CD22) (Mus musculus, UniProt P35329), entry "CCCCCC[C@H](O)[C@]1(C(=O)O)C[C@H](O)[C@@H](NC(=O)CO)[C@H]([C@H](O)[C@H](O)CNC(=O)Cc2ccc(Cl)cc2)O1" , no comment.
Sequence (P35329 22-708 limits assumed): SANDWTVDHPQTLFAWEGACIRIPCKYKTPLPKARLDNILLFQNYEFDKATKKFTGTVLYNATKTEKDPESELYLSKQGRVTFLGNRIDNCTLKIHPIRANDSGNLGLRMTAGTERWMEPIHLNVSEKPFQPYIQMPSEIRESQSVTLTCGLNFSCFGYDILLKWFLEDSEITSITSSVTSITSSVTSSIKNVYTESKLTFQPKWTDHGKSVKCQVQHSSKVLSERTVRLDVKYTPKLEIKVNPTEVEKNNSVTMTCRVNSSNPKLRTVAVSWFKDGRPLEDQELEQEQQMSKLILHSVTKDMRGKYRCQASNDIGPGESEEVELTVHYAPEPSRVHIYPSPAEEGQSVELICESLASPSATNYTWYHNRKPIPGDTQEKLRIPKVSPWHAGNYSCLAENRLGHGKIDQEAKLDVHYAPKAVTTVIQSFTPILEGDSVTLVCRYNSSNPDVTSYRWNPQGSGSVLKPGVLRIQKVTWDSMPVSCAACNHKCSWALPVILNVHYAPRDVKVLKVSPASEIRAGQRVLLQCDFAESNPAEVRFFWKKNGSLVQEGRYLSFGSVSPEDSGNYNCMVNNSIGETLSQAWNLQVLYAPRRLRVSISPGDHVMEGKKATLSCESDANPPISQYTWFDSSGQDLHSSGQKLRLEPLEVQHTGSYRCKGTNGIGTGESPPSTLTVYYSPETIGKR
Reply: 5.00 to 6.00

Task item: State recorded pKd with mouse Siglec-2-Fc-Avi (CD22) (Mus musculus, UniProt P35329), entry "C#CCOCCOCCO[C@]1(C(=O)O)C[C@H](O)[C@@H](NC(=O)CO)[C@H]([C@H](O)[C@H](O)CNC(=O)Cc2ccc(Cl)c(O)c2)O1" , no comment.
Reply: 5.00 to 6.00
